System: MDA-N
ASSAY_REMARKS: in vitro breast cancer cell growth inhibition (NCI screen)
The threshold is inclusive: cytotoxicity log GI50 of exactly -5 M counts as 1; values below receive 0.

COMPOUND	ANSWER_LABEL
COC(=O)CCCC(=O)NC1=C(Nc2ccc(OC)cc2)C(=O)c2ccccc2C1=O [Compound 53]	1
O=C(O)CCCc1nc2c(n1-c1ccccc1)C(=O)c1ccccc1C2=O [Compound 58]	1
O=C(NC1=C(Cl)C(=O)c2ccccc2C1=O)c1ccccc1 [Compound 2e]	0
COC(=O)CCCC(=O)NC1=C(NCc2ccccc2)C(=O)c2ccccc2C1=O [Compound 51]	1
COC(=O)CCC(=O)NC1=C(Nc2ccccc2)C(=O)c2ccccc2C1=O [Compound 54]	0
COC(=O)CCCC(=O)NC1=C(Nc2ccccc2)C(=O)c2ccccc2C1=O [Compound 52]	0
COc1ccc(-n2c(CCCC(=O)O)nc3c2C(=O)c2ccccc2C3=O)cc1 [Compound 59]	1
COC(=O)CCC(=O)NC1=C(NCc2ccccc2)C(=O)c2ccccc2C1=O [Compound 55]	1
CCNC1=C(NC(=O)c2ccccc2)C(=O)c2ccccc2C1=O [Compound 47]	0
